system: P30-OHKUBO; assay: selective drug sensitivity score (sDSS, relative to normal bone marrow) (sDSS (score)); higher = more potent and effective on the cell line relative to normal bone marrow cells; details: 72 h;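 further: ALL cell lines in 384-well plates, five doses spanning 10,000-fold, each plate scaled between vehicle and 100 µmol/L benzalkonium chloride controls, sDSS an adapted area-under-curve metric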
assay_metric: selective drug sensitivity score
Please reply with the value in numeric form only.

Ask: Which measured selective drug sensitivity score value corresponds to CN(Cc1cnc2nc(N)nc(N)c2n1)c1ccc(C(=O)N[C@@H](CCC(=O)O)C(=O)O)cc1 [Methotrexate] (top concentration 5000 nM) ?
Reply: -0.42

Ask: Now this one: COc1cc(Nc2ncc(F)c(Nc3ccc4c(n3)NC(=O)C(C)(C)O4)n2)cc(OC)c1OC [Tamatinib] (top concentration 10000 nM)
Reply: 4.38

Now for another entry.
Ask: Which measured selective drug sensitivity score value corresponds to COc1cc2ncnc(Nc3ccc(F)c(Cl)c3)c2cc1OCCCN1CCOCC1 [Gefitinib] (top concentration 10000 nM) ?
Reply: -0.04

----------
tested on: KOPN-8; experiment: selective drug sensitivity score (sDSS, relative to normal bone marrow) (sDSS (score)); higher = more potent and effective on the cell line relative to normal bone marrow cells; details: 72 h
We begin with a simple list: items and their reported selective drug sensitivity score.

Here's what some known entries look like.
Ask: Which measured selective drug sensitivity score value corresponds to COCC[n+]1c2c(n(Cc3cnccn3)c1C)C(=O)c1ccccc1C2=O [Sepantronium_bromide] (top concentration 10000 nM) ?
Reply: 22.8

Ask: Now this one: CC[C@@H]1C(=O)OC[C@@H]1Cc1cncn1C [Pilocarpine] (top concentration 40000 nM)
Reply: -1.56

Ask: Now this one: CN(C)C(=O)c1ccc(S(=O)(=O)c2ccc(NC(=O)[C@@](C)(O)C(F)(F)F)c(Cl)c2)cc1 [AZD7545] (top concentration 10000 nM)
Reply: 3.1

Ask: Now this one: Nc1ncnc2c1c(-c1cccc(OCc3ccccc3)c1)cn2[C@H]1C[C@@H](CN2CCC2)C1 [NVP-AEW541] (top concentration 10000 nM)
Reply: -2.62

Ask: Now this one: Nc1cc(F)ccc1NC(=O)c1ccc(CNC(=O)/C=C/c2cccnc2)cc1 [Tucidinostat] (top concentration 10000 nM)
Reply: 12.4

Now for another entry.
Ask: Which measured selective drug sensitivity score value corresponds to CON(C)C(=O)N1N=C(c2cc(F)ccc2F)S[C@@]1(CCCN)c1ccccc1 [Filanesib] (top concentration 1000 nM) ?
Reply: 9.8

----------
test system: NALM-6; assay: selective drug sensitivity score (sDSS, relative to normal bone marrow) (sDSS (score)); higher = more potent and effective on the cell line relative to normal bone marrow cells; settings: 72 h
Rule: selective drug sensitivity score under 4 gives class 0, otherwise class 1.

Field: example entries. Status: answers known.
Ask: For this compound, is measured selective drug sensitivity score 4 or higher? Cn1ncc(Cl)c1-c1cc(C(=O)N[C@H](CN)Cc2ccc(F)c(F)c2)oc1Cl [Uprosertib] (top concentration 10000 nM)
Reply: class 0

Ask: Now this one: O=C(/C=C\n1cnc(-c2cc(C(F)(F)F)cc(C(F)(F)F)c2)n1)NNc1cnccn1 [Selinexor] (top concentration 10000 nM)
Reply: class 1

Ask: Now this one: Nc1cc(C(F)(F)F)c(-c2cc(N3CCOCC3)nc(N3CCOCC3)n2)cn1 [Buparlisib] (top concentration 10000 nM)
Reply: class 1

Ask: Now this one: O=c1[nH]c(=O)n([C@H]2C[C@H](O)[C@@H](CO)O2)cc1C(F)(F)F [Trifluridine] (top concentration 10000 nM)
Reply: class 1

Ask: Now this one: CC[C@@]1(O)C(=O)OCc2c1cc1n(c2=O)Cc2cc3c(CN(C)C)c(O)ccc3nc2-1 [Topotecan] (top concentration 10000 nM)
Reply: class 1

---
Ask: For this compound, is measured selective drug sensitivity score 4 or higher? NC1(C(=O)N[C@@H](CCO)c2ccc(Cl)cc2)CCN(c2ncnc3[nH]ccc23)CC1 [AZD-5363] (top concentration 10000 nM)
Reply: class 1

Ask: Now this one: C[C@H](Nc1ncnc2nc[nH]c12)c1cc2cccc(Cl)c2c(=O)n1-c1ccccc1 [Duvelisib] (top concentration 500 nM)
Reply: class 1

Ask: Now this one: FC(F)(F)c1ccc(CNc2ccc(Cc3c[nH]c4ncc(Cl)cc34)cn2)cn1 [Pexidartinib] (top concentration 10000 nM)
Reply: class 0

Ask: Now this one: O=C(CCCCCCNC(=O)c1cnc(N(c2ccccc2)c2ccccc2)nc1)NO [Rocilinostat] (top concentration 10000 nM)
Reply: class 1

Ask: Now this one: CNC(=O)c1ccc(N2C(=S)N(c3cnc(C#N)c(C(F)(F)F)c3)C(=O)C23CCC3)cc1F [Apalutamide] (top concentration 10000 nM)
Reply: class 0

Ask: Now this one: CNc1ncc2cc(-c3cc(NC(=O)NCCC(C)(C)C)c(F)cc3C)c(C)nc2n1 (top concentration 10000 nM)
Reply: class 1

Ask: Now this one: CCS(=O)(=O)N1CCN(c2ccc(Nc3ncc(C(N)=O)c(NC4CC4)n3)cc2)CC1 [Cerdulatinib] (top concentration 10000 nM)
Reply: class 0

Ask: Now this one: C[C@@H]1COC(Nc2ccc3ncnc(Nc4ccc(OCc5nccs5)c(Cl)c4)c3c2)=N1 [Varlitinib] (top concentration 10000 nM)
Reply: class 0

Ask: Now this one: C=CC[C@@H]1/C=C(\C)C[C@H](C)C[C@H](OC)[C@H]2O[C@@](O)(C(=O)C(=O)N3CCCC[C@H]3C(=O)O[C@H](/C(C)=C/[C@@H]3CC[C@@H](O)[C@H](OC)C3)[C@H](C)[C@@H](O)CC1=O)[C@H](C)C[C@@H]2OC [Tacrolimus] (top concentration 10000 nM)
Reply: class 0

Ask: Now this one: Nc1ncnc2c1nc(N)n2[C@@H]1O[C@H](CO)[C@@H](O)[C@H]1O [8-amino-adenosine] (top concentration 50000 nM)
Reply: class 1

Ask: Now this one: Cn1cc(-c2ccc(F)c(C(F)(F)F)c2)nc1C1CCN(c2ncnc3[nH]ncc23)CC1 (top concentration 10000 nM)
Reply: class 0

Ask: Now this one: COC12C(COC(N)=O)C3=C(C(=O)C(C)=C(N)C3=O)N1CC1NC12 (stereo in doubt) [Mitomycin_C] (top concentration 10000 nM)
Reply: class 0

----------
We begin with a simple list: items and their reported selective drug sensitivity score.
tested on: 697; assay: selective drug sensitivity score (sDSS, relative to normal bone marrow) (sDSS (score)); higher = more potent and effective on the cell line relative to normal bone marrow cells; conditions: 72 h
Please reply with the value in numeric form only.

Ask: Which measured selective drug sensitivity score value corresponds to C=CC(=O)Nc1cccc(Oc2nc(Nc3ccc(N4CCN(C)CC4)cc3)nc3ccsc23)c1 [Olmutinib] (top concentration 1000 nM) ?
Reply: -0.02

Ask: Now this one: CC(C)(C)c1nc(-c2cccc(NS(=O)(=O)c3c(F)cccc3F)c2F)c(-c2ccnc(N)n2)s1 [Dabrafenib] (top concentration 2500 nM)
Reply: 11.5

Ask: Now this one: C=CC(=O)Nc1cc(Nc2nccc(-c3cn(C)c4ccccc34)n2)c(OC)cc1N(C)CCN(C)C [Osimertinib] (top concentration 2500 nM)
Reply: -1.42

----------
system: P30-OHKUBO; assay: selective drug sensitivity score (sDSS, relative to normal bone marrow) (sDSS (score)); higher = more potent and effective on the cell line relative to normal bone marrow cells; settings: 72 h
We begin with a simple list: items and their reported selective drug sensitivity score.
Please reply with the value in numeric form only.

Here's what some known entries look like.
Ask: Which measured selective drug sensitivity score value corresponds to CCCCC(=O)OCC(=O)[C@]1(O)Cc2c(O)c3c(c(O)c2[C@@H](O[C@H]2C[C@H](NC(=O)C(F)(F)F)[C@H](O)[C@H](C)O2)C1)C(=O)c1c(OC)cccc1C3=O [Valrubicin] (top concentration 5000 nM) ?
Reply: 5.98

Ask: Now this one: CCNC(=O)C[C@@H]1N=C(c2ccc(Cl)cc2)c2cc(OC)ccc2-n2c(C)nnc21 [Molibresib] (top concentration 10000 nM)
Reply: 6.4

Ask: Now this one: CN(C)C1CCN(C(=O)c2ccc(NC(=O)Nc3ccc(-c4nc(N5CCOCC5)nc(N5CCOCC5)n4)cc3)cc2)CC1 [Gedatolisib] (top concentration 1000 nM)
Reply: 15.2

Ask: Now this one: COc1ccc(COc2cc3oc(=O)c4cc(C(C)O)ccc4c3cc2OC)cc1 (configuration not stated) [Palomid-529] (top concentration 10000 nM)
Reply: -0.24

Ask: Now this one: COCC[n+]1c2c(n(Cc3cnccn3)c1C)C(=O)c1ccccc1C2=O [Sepantronium_bromide] (top concentration 10000 nM)
Reply: 22.8

Ask: Now this one: CCS(=O)(=O)Nc1ccc(Oc2ccc(F)cc2F)c(-c2cn(C)c(=O)c3[nH]ccc23)c1 [Mivebresib] (top concentration 10000 nM)
Reply: 15.3

Ask: Now this one: CN1CC[C@@H](NC(=O)Nc2ccc(C#N)cc2)C[C@@H]1c1nc2ccccc2[nH]1 [Glasdegib] (top concentration 1000 nM)
Reply: 0

Ask: Now this one: COc1cc2c(Nc3ccc(Cl)c(Cl)c3F)ncnc2cc1OC[C@@H]1C[C@@H]2CN(C)C[C@@H]2C1 [Tesevatinib] (top concentration 1000 nM)
Reply: 0.94

Ask: Now this one: COc1cccc2c1C(=O)c1c(O)c3c(c(O)c1C2=O)C[C@@](O)(/C(CO)=N/NC(=O)CCCCCN1C(=O)C=CC1=O)C[C@@H]3O[C@H]1C[C@H](N)[C@H](O)[C@H](C)O1 [Aldoxorubicin] (top concentration 1000 nM)
Reply: 7.34

Ask: Now this one: CC(C)Nc1cc(-c2c[nH]c(C(=O)N[C@H](CO)c3cccc(Cl)c3)c2)c(Cl)cn1 [Ulixertinib] (top concentration 10000 nM)
Reply: -0.18

---
Ask: Which measured selective drug sensitivity score value corresponds to CO[C@H]1C[C@@H]2CC[C@@H](C)[C@@](O)(O2)C(=O)C(=O)N2CCCC[C@H]2C(=O)O[C@H]([C@H](C)C[C@@H]2CC[C@@H](O)[C@H](OC)C2)CC(=O)[C@H](C)/C=C(\C)[C@@H](O)[C@@H](OC)C(=O)[C@H](C)C[C@H](C)/C=C/C=C/C=C/1C [Sirolimus] (top concentration 100 nM) ?
Reply: 1.34

Ask: Now this one: CCN(CCO)CCCOc1ccc2c(Nc3cc(CC(=O)Nc4cccc(F)c4)[nH]n3)ncnc2c1 [AZD1152-HQPA] (top concentration 1000 nM)
Reply: 24.7

Ask: Now this one: O=C(NCc1ccncc1)C12CC3CC(C1)CC(c1ccc(Cl)cc1)(C3)C2 (top concentration 50000 nM)
Reply: 3.18

Ask: Now this one: O=C(Nc1cnn2ccc(N3CCC[C@@H]3c3cc(F)ccc3F)nc12)N1CC[C@H](O)C1 [Larotrectinib] (top concentration 1000 nM)
Reply: -0.52

Ask: Now this one: O=C(/C=C/c1cccc(S(=O)(=O)Nc2ccccc2)c1)NO [Belinostat] (top concentration 10000 nM)
Reply: 8
